Numbers sourced from ChEMBL document CHEMBL3877309.

I'd appreciate it if you could supply Ka values for the items below.
Test: Binding affinity to synthetic biotin-labeled 30-mer GC-rich duplex DNA in pH 7.4 EDTA buffer solution in presence of 0.05 M NaCl at 25 degC by QCM sensogram analysis
One number for each entry, in ×10⁵ /M.

>>> endpoint_result("Cc1c2c[n+](CCOCCN)ccc2c(C)c2c1c1cc(O)ccc1n2C")
311
>>> endpoint_result("Cc1c2c[n+](CCN)ccc2cc2[nH]c3ccccc3c12")
8.33

Now turn to the next molecule.
Challenge: Quick one: Ka for CNC(=O)NCCOCC[n+]1ccc2c(C)c3[nH]c4ccccc4c3c(C)c2c1 ?
Response given: 9.9

* * *

I'd appreciate it if you could supply IC50 at 72 h values for the items below.
Experiment: Cytotoxicity against mouse NIH/3T3 cells assessed as reduction in cell viability after 72 hrs by MTT assay
Format: toxicity, cell-based, NIH3T3
One number for each entry, in µM.

Worked examples follow.
>>> endpoint_result("Cc1c2c[n+](C)ccc2c(C(=O)NCCOCCN)c2[nH]c3ccccc3c12")
60
>>> endpoint_result("COC(=O)c1c2cc[n+](C)cc2c(C)c2c1[nH]c1ccccc12")
1.2
>>> endpoint_result("COC(=O)c1c2cc[n+](CCN)cc2c(C)c2c1[nH]c1ccccc12.[Cl-]")
0.78

Look up IC50 at 72 h for the entries below, preserving their order.
1. Cc1c2cnccc2c(C(=O)NCCN)c2[nH]c3ccccc3c12
2. CNC(=O)NCCOCCNC(=O)c1c2cc[n+](C)cc2c(C)c2c1[nH]c1ccccc12
3. CNC(=O)NCCOCC[n+]1ccc2c(C)c3c(c(C)c2c1)c1cc(O)ccc1n3C

Response given:
1. 1.4
2. 18
3. 1.6

* * *

Test: Cytotoxicity against mouse Sarcoma 180 cells assessed as reduction in cell viability after 72 hrs by MTT assay
Type: functional, cell-based
Conditions: Sarcoma-180, 72 h
The threshold is 1000 nM. Values of IC50 beneath it are tagged yes (1); values meeting or exceeding it are tagged no (0).

Known results for compounds:
>>> group_label("CNC(=O)NCCCCNC(=O)c1c2cc[n+](C)cc2c(C)c2c1[nH]c1ccccc12")
"no (0)"
>>> group_label("COC(=O)c1c2cc[n+](CCNCCN)cc2c(C)c2c1[nH]c1ccccc12")
"no (0)"
>>> group_label("Cc1c2c[n+](C)ccc2c(C(=O)NCCCCCN)c2[nH]c3ccccc3c12")
"no (0)"
>>> group_label("Cc1c2cnccc2c(C)c2c1c1ccccc1n2C")
"yes (1)"
>>> group_label("Cc1c2ccncc2c(C)c2c1[nH]c1ccccc12")
"no (0)"

Challenge: Dear reviewer, please state whether Cc1c2c[n+](C)ccc2c(C(=O)NCCOCCN)c2[nH]c3ccccc3c12 has IC50 strictly beneath 1000 nM.
Response given: no (0)

Challenge: Dear reviewer, please state whether COC(=O)c1c2cc[n+](CCN)cc2c(C)c2c1[nH]c1ccccc12.[Cl-] has IC50 strictly beneath 1000 nM.
Response given: yes (1)

Challenge: Dear reviewer, please state whether CNC(=O)NCCOCCNC(=O)c1c2cc[n+](C)cc2c(C)c2c1[nH]c1ccccc12 has IC50 strictly beneath 1000 nM.
Response given: no (0)

Challenge: Dear reviewer, please state whether Cc1c2c[n+](C)ccc2c(C(=O)NCCN)c2[nH]c3ccccc3c12 has IC50 strictly beneath 1000 nM.
Response given: no (0)
